For each record, write down the corresponding inhibition at 100 µM.
test-target: EsaR (Pantoea stewartii subsp. stewartii)
Construct: expressed in transfected cells; host or cells: E. coli JLD271 (K12 ΔsdiA), arabinose-induced pJN105-esaR
measurement-description: cell-based
measurement-parameters: 3.5 h, read-out: EsaR-activated (pesaS) antagonism
Give bare numbers, in %.

1) O=C(/C=C/c1ccccc1)N[C@H]1CCOC1=O [B10] = -6
2) O=C(Cc1ccccc1[N+](=O)[O-])N[C@H]1CCOC1=O [C15] = -6

Can you give me inhibition at 100 µM for all of these, one by one?
1. CCCCCC(=O)CC(=O)N[C@H]1CCOC1=O [OOHL, 3-(oxo)-octanoyl HL, reference compound]
2. O=C(Cc1ccc(Br)cc1)N[C@H]1CCOC1=O [K3]
3. CCCCCC(=O)N[C@H]1CCOC1=O [HHL, hexanoyl HL, reference compound]
4. O=C(Cc1ccccc1Br)N[C@H]1CCOC1=O [C9]

1: -89; 2: -24; 3: -96; 4: -8

* * *

test-target: EsaR (Pantoea stewartii subsp. stewartii)
Construct: expressed in transfected cells; host or cells: E. coli JLD271 (K12 ΔsdiA), arabinose-induced pJN105-esaR
measurement-description: cell-based
measurement-parameters: 3.5 h, read-out: EsaR-activated (pesaS) [%] agonism
Experimental: EsaR transcriptional activation and repression were examined using E. coli and P. stewartii reporters (strains and plasmids listed in Table S1; see Methods section for assay details). […] Overnight cultures were diluted 1:10 in LB medium with appropriate antibiotics and grown at 37 °C (200 rpm) to an OD600 of 0.22–0.27 before induction with 4 mg mL^–1 arabinose. OD600 was measured by placing 200 μL of culture into a 96-well plate and reading optical density using the BioTek Synergy 2 plate reader. […]
experimental-endpoint: activation at 100 µM (%)
Numbers only, in %.

Below, each entry is followed by its recorded activation at 100 µM result.
1. CCCCCCCCCC(=O)CC(=O)N[C@H]1CCOC1=O [OdDHL, 3-(oxo)-dodecanoyl HL, reference compound] = 34
2. O=C(Cc1ccccc1Br)N[C@H]1CCOC1=O = -2

Then there is this compound:
For the compound `O=C(Cc1ccc([N+](=O)[O-])cc1)N[C@H]1CCOC1=O` , what activation at 100 µM is on record? 14

* * *

test-target: EsaR (Pantoea stewartii subsp. stewartii, UniProt P54293)
Construct: expressed in transfected cells; host or cells: E. coli JLD271 (K12 ΔsdiA), arabinose-induced pJN105-esaR
Sequence (P54293 whole entry): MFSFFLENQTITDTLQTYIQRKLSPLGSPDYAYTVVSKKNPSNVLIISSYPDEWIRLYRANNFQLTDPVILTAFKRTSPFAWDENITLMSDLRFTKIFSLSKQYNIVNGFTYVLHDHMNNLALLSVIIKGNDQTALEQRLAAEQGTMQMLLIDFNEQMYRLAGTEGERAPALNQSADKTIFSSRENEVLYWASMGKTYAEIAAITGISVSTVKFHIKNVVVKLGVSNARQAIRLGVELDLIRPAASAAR
measurement-description: cell-based
measurement-parameters: 3.5 h, read-out: EsaR-activated (pesaS) antagonism
Exercise: state measured inhibition at 100 µM for each of the compounds provided.
Give bare numbers, in %.

These solved cases illustrate the format of a correct answer.
1. CCCCCCCCCCCC(=O)CC(=O)N[C@H]1CCOC1=O [OtDHL, reference compound] = -41
2. O=C(CCc1ccc(Br)cc1)N[C@H]1CCOC1=O [B7, 4-Br phenylpropanoyl HL] = -50
3. O=C(Cc1cccc2ccccc12)N[C@H]1CCOC1=O [E13] = -2

Could you report inhibition at 100 µM for every entry in the following list?
1. O=C(Cc1ccc2ccccc2c1)N[C@H]1CCOC1=O [E12]
2. O=C(Cc1cccc(Cl)c1)N[C@H]1CCOC1=O [C6]
3. O=C(Cc1ccc([N+](=O)[O-])cc1)N[C@H]1CCOC1=O [C13]

[-10, -40, -29]
